Each recorded value in this set is attributed to the emibetuzumab library of Makowski et al. (2022).

B1: VH:VL chains; a variant is named by its letters at X, in order (parent)
chain 1: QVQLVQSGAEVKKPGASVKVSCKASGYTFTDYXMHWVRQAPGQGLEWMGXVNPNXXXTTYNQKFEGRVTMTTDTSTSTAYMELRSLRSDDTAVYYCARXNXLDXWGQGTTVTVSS
chain 2: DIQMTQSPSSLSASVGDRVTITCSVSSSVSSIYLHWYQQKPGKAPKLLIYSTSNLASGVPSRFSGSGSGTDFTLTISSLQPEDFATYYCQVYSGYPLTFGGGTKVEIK

- Variants of: B1
- measurement_description: yeast display scFab, FACS + sequencing
- assay_setup: with MET
This is one part of the list. No count for the full screen is at hand.
assay_metric: antigen binding call

Example variants with recorded antigen binding call:
variant_annotation=SAEEDDVY obs_value="no binding"
variant_annotation=VEEEAFAV obs_value="no binding"
variant_annotation=DEGEDAGA obs_value="no binding"
variant_annotation=DTKAADWY obs_value="no binding"

Fill in the blank: the reported antigen binding call of YRTRGALS is ____. binds

Fill in the blank: the reported antigen binding call of YRGASSWV is ____. binds

Fill in the blank: the reported antigen binding call of YTKAASWV is ____. no binding
